Reference source for all entries: PubChem BioAssay

Answer each item with its documented viability.
Assay: reversal of MRP1-mediated doxorubicin resistance, pilot screen, H69AR cells, doxorubicin co-treatment (AID 601)
Settings: H69AR cells, CellTiter-Glo, 72 h; compound alone cytotoxicity; at 10 µM
Answers are plain numbers, in %.

Examples from the recorded data:
• O=C(NCc1ccccc1)C1CCN(S(=O)(=O)N2CCCCCC2)CC1 = 96.7
• CCC(Sc1nc2sc(C(=O)OC)c(C)c2c(=O)n1N)C(=O)NCC1CCCO1 (stereo not given) = 82.2
• O=C(CSc1nc2ccccc2s1)N1CCN(C(=O)c2ccco2)CC1 = 104
• Cc1nc2c(C(=O)O)cnn2c(C)c1Cc1ccccc1F = 87.4

Proceeding to the next molecule to report its viability.
Dear colleague, I am looking for the recorded viability of the following molecule: CN(C)S(=O)(=O)c1ccc(C(=O)NCc2cccs2)cc1 101

###

Experiment: reversal of MRP1-mediated doxorubicin resistance, pilot screen, H69AR cells, doxorubicin co-treatment (AID 601)
Settings: H69AR cells + 2 uM doxorubicin, CellTiter-Glo, 72 h; measured here: viability with 2 uM doxorubicin; at 10 µM; stronger effect = lower value
Measured parameter: viability
The answer consists of two parts: a number and, after it, its unit.

• Cc1nnc(SCc2cn3ccsc3n2)n(N)c1=O = 90.7%

Give viability for each of the items listed below.
1. COc1ccccc1NC(=O)C1=C(C)Nc2nnnn2C1c1ccccc1OC (configuration not stated)
2. COC(=O)c1ccccc1S(=O)(=O)N(CCCN1CCOCC1)Cc1cccs1

["88.5%", "90.2%"]

###

Test: reversal of MRP1-mediated doxorubicin resistance, pilot screen, H69AR cells, doxorubicin co-treatment (AID 601)
Conditions: H69AR cells + 2 uM doxorubicin, CellTiter-Glo, 72 h; measured here: viability with 2 uM doxorubicin; at 10 µM; stronger effect = lower value
Measured parameter: viability (%)
Numbers only, in %.

Examples from the recorded data:
• CN(C)C(CN1C(=O)C2CC=CCC2C1=O)c1cn(C)c2ccccc12 (stereo unspecified) = 88.7
• O=C(CSc1ncnc2c1oc1ccccc12)NCc1ccco1 = 82.1
• CCc1ccccc1-n1c(SCC(=O)N2CCCC2)nnc1-c1ccccn1 = 93.3

Give viability for each of the items listed below.
1. CC(=O)Nc1ccc(NS(=O)(=O)C(F)(F)F)cc1
2. CCOC(=O)CN1CC23C=CC(O2)C(C(=O)NC2CCCC2)C3C1=O (stereo unspecified)
3. O=C(CCCC(=O)OCC(=O)NC1CCCC1)Nc1ccccn1
4. Cc1cc(=O)oc2ccc(OCC(=O)N3CCC(C)CC3)cc12
5. CCOC(=O)CSc1nc(C)c(C(=O)OCC)s1
6. CCOc1cc(C(=O)N(C)c2ccccc2)cc(OCC)c1OCC
7. Cc1cc2cc(CN(CC3CCCO3)C(=O)c3cnccn3)c(=O)[nH]c2cc1C (stereo unspecified)

[96.3, 87.6, 103, 90.7, 97.8, 90.7, 86.3]

###

Experiment: 384-well plate pilot, post-Golgi transport modulator project, inhibition of yeast transport mutant growth (AID 636)
Conditions: absorbance 615 nm, about 18 h, stronger effect = higher value
Measured parameter: inhibition (%)
One number for each entry, in %.

Examples from the recorded data:
• O=C1CC(N2CCN(c3ccc(Cl)c(Cl)c3)CC2)C(=O)N1 (centres undefined) = -2.84
• Cn1nnnc1SCSc1nnnn1C = -5
• Cc1cccc(C2c3c(n(C)c(=O)n(C)c3=O)N=C3c4ccccc4C(=O)C32)c1 (centres undefined) = -7.47

Proceeding to the next compound to report its inhibition.
Dear colleague, I am looking for the recorded inhibition of the following compound: Cc1ccc(C)c(N2CCN(S(=O)(=O)c3ccc4c(c3)OCCO4)CC2)c1 -4.81

###

Assay: reducers of endogenous Her2 protein level, primary screen, SKBR3 breast tumor cells, AlphaScreen, ATP viability (AID 461);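 note: percent of carrier control wells set as 100% viability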
Conditions: 18-24 h, measured here: SKBR3 viability, ATP luminescence, at 10 µM
Answer each item with its documented viability.
Give bare numbers, in %.

- Cc1cc(Br)ccc1NC(=O)CCN1C(=O)c2ccncc2C1=O: 104
- Cc1oc(C(=O)O)cc1CSCc1cc(C(=O)O)c(C)o1: 104
- Cc1cc(S(=O)(=O)NC2CCCCC2)ccc1OCC(=O)NCc1ccccn1: 91.5
- CCOC(=O)c1ccc2nc(C)c3c(c2c1)OC(C)C3 (stereo unspecified): 92
- Cc1cc(C)c2cc3c(ccn3C3OC[C@H](O)[C@H](O)[C@H]3O)cc2n1 (stereo partly specified): 95

Give viability for each of the items listed below.
1. COc1cc(OC)c(OC)cc1CN(C)CCc1ccccn1
2. CCCCC(CC)C(=O)Nc1ccc(Cl)cn1 (stereo unspecified)
3. CC(=O)c1c(C)[nH]c(C(=O)N2CCN(C(=O)c3ccco3)CC2)c1C
4. O=C(NCC(c1cccnc1)N1CCOCC1)c1ccco1 (stereo unspecified)
5. CCN(CC)CCN1C(=O)C(O)=C(C(=O)c2ccco2)C1c1ccccn1 (stereo unspecified)
6. Cc1nn(Cc2ccc(C(=O)NC3CCCCC3)o2)c(C)c1Br
7. Cc1cc(C(=O)NCCCN2CCOCC2)n(-c2ccccc2)n1

104
103
85
97
109
94.5
94.5

Give viability for each of the items listed below.
1. CCOc1ccc(NC(=O)CN2CCN(CC(=O)Nc3ccc(F)c(F)c3)CC2)cc1
2. Cn1c(=O)oc2cc(S(=O)(=O)N3CCC(C(=O)Nc4ccc(OC(F)(F)F)cc4)CC3)ccc21
3. CCOc1ccc(C(c2nnnn2Cc2ccccc2)N2CCN(C(=O)c3ccco3)CC2)cc1 (stereo unspecified)
4. C=CCn1c(=O)[nH]c2cc(C(=O)N3CCN(c4cc(C)ccc4C)CC3)ccc2c1=O
5. Cc1nn(-c2ccc(F)cc2)c2nc(N)c(C#N)c(-c3cccs3)c12
6. c1ccc(-n2ncc3c(N4CCCCC4)ncnc32)cc1
7. CCOc1ccccc1CN1C(=O)c2ccccc2C1C(=O)NCC1CCCO1 (stereo unspecified)

[95, 137, 92.5, 81.5, 80.5, 105, 104]

Give viability for each of the items listed below.
1. Cc1ccc(NS(=O)(=O)c2cn(C)cn2)cc1
2. COc1ccc(N(CC(=O)N2CCN(Cc3ccc4c(c3)OCO4)CC2)S(C)(=O)=O)cc1OC
3. CCn1c(=N)n(CC(O)c2ccco2)c2ccccc21 (stereo unspecified)

[95, 106, 94.5]

Give viability for each of the items listed below.
1. COc1ccc(CN(C(=O)c2cccs2)c2nccs2)cc1OC
2. CCc1nnc(NC(=O)CSc2nnc3scc(-c4ccc(C)cc4)n23)s1
3. COc1cccc(CN2CCN(C(=O)CC(C)C)CC2)c1
4. CC(C)=CCCC(C)NC(=O)NC1CCCCC1 (stereo unspecified)
5. O=C(Cn1ccc2ccccc2c1=O)NCCC(=O)NC1CCN(Cc2ccccc2)CC1
6. COc1ccccc1-n1cnc(N)c1C(C)=O

74
100
92.5
91
58
110

###

Answer each item with its documented viability.
Test: reversal of MRP1-mediated doxorubicin resistance, pilot screen, H69AR cells, doxorubicin co-treatment (AID 601)
Details: H69AR cells, CellTiter-Glo, 72 h; compound alone cytotoxicity; at 10 µM
One number for each entry, in %.

* Cc1oc2c(CN3CCCC3)c(O)ccc2c(=O)c1-c1ccccc1 | 89
* O=C(O)c1[nH]nc2c1COc1ccccc1-2 | 100
* CC1Cc2ccccc2N1C(=O)CSc1nnc2n1C(C)(C)Cc1ccccc1-2 (centres undefined) | 82.4

Proceeding to the next compound to report its viability.
Dear colleague, I am looking for the recorded viability of the following compound: CC1(C)Cc2c(sc3c2C2=NCCN2C=N3)CO1 90.9

###

Answer each item with its documented inhibition.
Assay: growth suppression of yeast trafficking mutant, preliminary HTS, modulators of trafficking downstream of Golgi apparatus project, 1536-format plate, OD 615 nm (AID 637)
Conditions: yeast transport mutant growth, absorbance 615 nm, 18 h; stronger effect = higher value
Give bare numbers, in %.

Examples from the recorded data:
- CC(=O)c1ccc(OC(=O)c2cccs2)cc1: 3.61
- c1ccc(Oc2ccc(-n3cnnn3)cc2)cc1: -12.2

Give inhibition for each of the items listed below.
1. COc1ccc(OC)c(C2C(C#N)=C(N)Oc3cc(C)[nH]c(=O)c32)c1 (stereo not given)
2. COCCNC(=O)Cn1nc(C(F)(F)F)c(Br)c1C
3. COC(=O)C1C(=O)c2c([nH]c(C(=O)OCCOC(C)C)c2C)CC1C (stereo not given)

1: 0.49; 2: -0.81; 3: -11.5

###

Assay: reversal of MRP1-mediated doxorubicin resistance, pilot screen, H69AR cells, doxorubicin co-treatment (AID 601)
Conditions: H69AR cells + 2 uM doxorubicin, CellTiter-Glo, 72 h; measured here: viability with 2 uM doxorubicin; at 10 µM; stronger effect = lower value
Measured parameter: viability (%)
Numbers only, in %.

Examples from the recorded data:
* O=C(O)C1CC=CCC1C(=O)NCc1ccccc1 (centres undefined) | 96
* O=C(CCc1nc2ccccc2s1)OCC(=O)N1CCN(C(=O)c2ccco2)CC1 | 86.8
* O=S(=O)(NCCc1csc(-c2ccccc2)n1)c1ccc2c(c1)OCCO2 | 89
* c1ccc(Nc2ccccc2Nc2ccccn2)nc1 | 99.2
* COC(=O)c1ccc(C)c(NS(=O)(=O)c2ccc3c(c2)OCCO3)c1 | 72
* CCc1ccc(N2CC(C(=O)OCC(=O)Nc3cc(C)on3)CC2=O)cc1 (centres undefined) | 99.2
* Cc1ccc(S(=O)(=O)N2C(=O)CCC2C(=O)Nc2ccc3c(c2)OCCO3)cc1 (centres undefined) | 93.8
* O=C(O)c1c[nH]c2ccc(S(=O)(=O)N3CCN(c4ccc(F)cc4)CC3)cc2c1=O | 82.8

Give viability for each of the items listed below.
1. Cc1cc(C(=O)OCCO)c(C#N)c(N)n1
2. O=S(=O)(NCCc1ccccn1)c1cccs1

1: 97.6; 2: 98.3

Give viability for each of the items listed below.
1. CCCCNC(=O)c1nc2ncc(Br)cn2n1
2. COC(=O)CCSCc1cn2cc(Cl)ccc2n1

1: 91.4; 2: 98.2

Give viability for each of the items listed below.
1. O=C(NCc1ccc2c(c1)OCO2)c1cc2n(n1)C(C(F)(F)F)CC(c1ccc3c(c1)OCO3)N2 (centres undefined)
2. COc1ccc(CN(C(=O)c2cccs2)c2nccs2)cc1OC
3. CN(CC(=O)NCCC1=CCCCC1)S(=O)(=O)c1ccc2c(c1)CCC(=O)N2

74.7
99.6
91.7

Give viability for each of the items listed below.
1. CCOC(=O)c1sc2nc(C)cc(C)c2c1N
2. Cc1cccc(NS(=O)(=O)c2cc(C(=O)OCC(=O)Nc3cc(C)on3)ccc2C)c1
3. Fc1ccccc1-c1nc(NCCCN2CCOCC2)c2ccccc2n1

1. 82.8
2. 102
3. 79.9
